- Tested on: Wolbachia pipientis
- PROTOCOL DETAILS: Anti-Wolbachia Cell-Based Screen
- Format: functional
- Parameters: scale not given: in the data most compounds retested in dose-response had high values
- PROTOCOL CONDITIONS: 5 µM
The campaign covered roughly 48,000 compounds. About 13,000 (27%) showed an effect of 50% or more. The list shows a part of the results.
Quick rule for you: Percent Effect under 10% gets met, anything else gets not met.

COMPOUND: Cc1noc(Cl)c1CC(=O)NCCOc1ccc(F)cc1F
CATEGORY: not met
--
COMPOUND: CC(C)C1CN(c2cnccn2)CCC(=O)N1Cc1ccc(F)cc1 (stereo unspecified)
CATEGORY: met
--
COMPOUND: COCCN1C[C@@H]2CN(c3cnccn3)C[C@@H]2C1=O
CATEGORY: met
--
COMPOUND: Cc1c[nH]nc1C1CN(c2ncccn2)CCO1 (stereo unspecified)
CATEGORY: not met
--
COMPOUND: Cc1cnc(N2CCC(OCCN3CCCCC3)C2)nc1C (stereo unspecified)
CATEGORY: not met
--
COMPOUND: Cc1ccc(CNC2(Cc3cc(-c4ccc(F)cc4)on3)COC2)o1
CATEGORY: met
--
COMPOUND: CCN(CC)C(=O)Cn1c(C)cc2nc(SC)n(CC(C)C)c(=O)c21
CATEGORY: met
--
COMPOUND: CCN(CC)C(=O)Cn1c(-c2ccc(Cl)cc2)nc(C)c(CCO)c1=O
CATEGORY: not met
--
COMPOUND: CCN(Cc1cnn(CC)c1)C(=O)Cn1c(=O)c(C)nc2ccccc21
CATEGORY: met
--
COMPOUND: COCCn1ccnc1C1CCCN(c2cnccn2)C1 (stereo unspecified)
CATEGORY: met
--
COMPOUND: CN(C)c1cc(C(=O)NCC2(c3cccc(F)c3)CCOCC2)ccn1
CATEGORY: met

###

The reader will find reported Percent Effect values listed item by item below.
- Test system: Wolbachia pipientis
- PROTOCOL DETAILS: Anti-Wolbachia Cell-Based Screen
- Type: functional
- Set-up: scale not given: in the data most compounds retested in dose-response had high values
- PROTOCOL CONDITIONS: 5 µM
Out of some 48,000 compounds screened, about 13,000 (27%) showed an effect of 50% or more. Some of the results follow.

MOLECULE: Cc1nc(CN2CCCC2c2nc(C(C)C)no2)cs1 (stereo unspecified)
UNIT NAME: %
Percent Effect: -7.461

MOLECULE: CCS(=O)(=O)N(C)CC(=O)Nc1ccc(Br)cn1
UNIT NAME: %
Percent Effect: 11.17

MOLECULE: Cc1ccc(CNC(C)c2ccc(N3CCN(C)CC3)c(F)c2)o1.Cl (stereo unspecified)
UNIT NAME: %
Percent Effect: -9.969

MOLECULE: CNc1cc(C)nc(C2COCCN2Cc2csc(C)n2)n1 (stereo unspecified)
UNIT NAME: %
Percent Effect: 118.8

MOLECULE: CCC(=O)N1Cc2nnc(C3CCOCC3)n2C(Cc2c[nH]cn2)C1 (stereo unspecified)
UNIT NAME: %
Percent Effect: -1.737

MOLECULE: N#CCCN(CC(=O)Nc1ccc(Br)cc1Cl)Cc1cccnc1
UNIT NAME: %
Percent Effect: -15.5

###

- Tested on: Wolbachia pipientis
- PROTOCOL DETAILS: Anti-Wolbachia Cell-Based Screen
- Assay type: functional
- Parameters: scale not given: in the data most compounds retested in dose-response had high values
- PROTOCOL CONDITIONS: 5 µM
About 13,000 (27%) of roughly 48,000 compounds showed an effect of 50% or more. The list shows a part of the results.
VALUE TYPE: Percent Effect (%)

COMPOUND: CN1CCOC(CNCc2coc(-c3cccc(Cl)c3)n2)C1 (stereo not given)
ASSAY TARGET: Wolbachia pipientis
REPORTED RESULT: 93.12
//
COMPOUND: CN1CCOC(CNCc2nc(-c3cccnc3)no2)C1 (stereo not given)
ASSAY TARGET: Wolbachia pipientis
REPORTED RESULT: 17.39
//
COMPOUND: Cc1ccoc1C(=O)N1CCO[C@H]2[C@H](OCCN(C)C)CC[C@@H]21.O=C(O)C(F)(F)F
ASSAY TARGET: Wolbachia pipientis
REPORTED RESULT: -19.8
//
COMPOUND: CN1CCOC(CNCc2coc(-c3cccc(F)c3)n2)C1 (stereo not given)
ASSAY TARGET: Wolbachia pipientis
REPORTED RESULT: 69.38
//
COMPOUND: Cc1occc1C(=O)N1CCO[C@H]2[C@H](OCc3cccnc3)CC[C@@H]21.O=C(O)C(F)(F)F
ASSAY TARGET: Wolbachia pipientis
REPORTED RESULT: 4.513

###

The reader will find reported Percent Effect values listed item by item below.
- Tested on: Wolbachia pipientis
- PROTOCOL DETAILS: Anti-Wolbachia Cell-Based Screen
- Format: functional
- Design: scale not given: in the data most compounds retested in dose-response had high values
- PROTOCOL CONDITIONS: 5 µM
The whole screen tested about 48,000 compounds, of which about 13,000 (27%) showed an effect of 50% or more. This is one part of the list.

COMPOUND: CCOc1cccc(CNc2cnn(CC(C)C)c2CC)c1
Percent Effect, %: -19.91
//
COMPOUND: CN(C)CCN1CCCC12CCN(C(=O)c1ccoc1)CC2.O=C(O)C(F)(F)F.O=C(O)C(F)(F)F
Percent Effect, %: 109.3
//
COMPOUND: COc1cccc(CNCc2ccc(NC(=O)NC(C)C)cc2)c1
Percent Effect, %: 98.55
//
COMPOUND: COc1ccc(CN2C[C@@H]3CC[C@H](C2)N(Cc2snnc2C)C3)cc1
Percent Effect, %: -1.178
//
COMPOUND: CN(C)CCN1CCCC12CCN(C(=O)c1cccn1C)CC2.O=C(O)C(F)(F)F.O=C(O)C(F)(F)F
Percent Effect, %: -18.28
//
COMPOUND: F[C@@H]1CN(Cc2ccccc2)C[C@@H]1OCc1nc2ccccc2[nH]1
Percent Effect, %: -3.249
//
COMPOUND: CC(C)n1nc(Cn2cccn2)c2c1CN(C1CCOC1)C2.O=C(O)C(F)(F)F (stereo unspecified)
Percent Effect, %: -7.587
//
COMPOUND: CCOc1cccc(CNCc2ccc(NC(=O)NC(C)C)cc2)c1
Percent Effect, %: 132
//
COMPOUND: CN(C)CCN1CCCC12CCCN(Cc1ccoc1)C2.O=C(O)C(F)(F)F.O=C(O)C(F)(F)F.O=C(O)C(F)(F)F (stereo unspecified)
Percent Effect, %: 19.5
//
COMPOUND: CN1CC(Nc2ccc(Br)cc2C#N)CCC1=O (stereo unspecified)
Percent Effect, %: -7.586
//
COMPOUND: CCc1n[nH]c(SCC(=O)N2C[C@@H]3CC[C@H](C2)N(CC=C(C)C)C3)n1
Percent Effect, %: 12.53
//
COMPOUND: Cc1cc(S(C)(=O)=O)c(C)c(S(=O)(=O)NCC2CCCO2)c1 (stereo unspecified)
Percent Effect, %: -7.327
//
COMPOUND: CCN(CCc1nc2cc(C)ccc2[nH]1)C(=O)[C@@H](N)COC
Percent Effect, %: 2.321
//
COMPOUND: CSCC[C@@H](CO)Nc1ccc(-c2nc(C3CC3)no2)cn1
Percent Effect, %: -21.62
//
COMPOUND: Cn1cc(CN2CCCC23CCN(C(=O)c2cccn2C)CC3)cn1.O=C(O)C(F)(F)F
Percent Effect, %: -11.73
//
COMPOUND: Cc1ccccc1C(=O)N1CCC2(CCCN2CCN(C)C)CC1.O=C(O)C(F)(F)F.O=C(O)C(F)(F)F
Percent Effect, %: 100.3
//
COMPOUND: Cc1nn(CCn2ccnc2-c2cc3n(n2)CCCNC3)c(C)c1Cl
Percent Effect, %: 1.548
//
COMPOUND: NC(=O)C1=NC2=NS(=O)(=O)c3ccccc3N2N1Cc1ccccc1Cl
Percent Effect, %: -9.423
//
COMPOUND: CC(C)NC(=O)Nc1ccc(CNCc2ccc(OC(F)F)cc2)cc1
Percent Effect, %: 126.1
//
COMPOUND: Cc1nn(CC(C)C)c(N(C)C)c1CNCCCNS(C)(=O)=O
Percent Effect, %: 11.35
//
COMPOUND: Cc1cccc(CNCc2ccc(NC(=O)NC(C)C)cc2)c1
Percent Effect, %: 97.74

Cited source: ChEMBL document CHEMBL3988442
